Biological target: CYP1B1 (Homo sapiens, UniProt Q16678)
Construct: purchased BD Biosciences Discovery Labware (Bedford, MA, USA)
Sequence (Q16678 1-543): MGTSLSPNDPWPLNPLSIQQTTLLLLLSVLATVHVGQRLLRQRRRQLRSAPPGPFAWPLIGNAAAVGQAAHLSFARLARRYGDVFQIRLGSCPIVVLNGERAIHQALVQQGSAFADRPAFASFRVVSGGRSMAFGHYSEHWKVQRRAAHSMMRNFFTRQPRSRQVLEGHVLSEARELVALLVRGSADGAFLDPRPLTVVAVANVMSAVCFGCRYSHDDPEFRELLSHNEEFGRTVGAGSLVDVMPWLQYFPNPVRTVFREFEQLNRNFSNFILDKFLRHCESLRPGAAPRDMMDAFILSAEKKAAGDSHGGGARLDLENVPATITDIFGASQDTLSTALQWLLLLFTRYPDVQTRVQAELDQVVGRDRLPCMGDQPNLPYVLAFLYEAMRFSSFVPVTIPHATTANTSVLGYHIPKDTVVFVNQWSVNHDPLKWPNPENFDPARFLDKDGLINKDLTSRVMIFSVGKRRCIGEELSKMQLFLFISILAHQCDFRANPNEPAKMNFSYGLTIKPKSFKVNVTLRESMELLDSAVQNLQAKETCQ
Assay: Inhibition of recombinant CYP oxidation (fluorescent coumarin substrate)
Assay type: in vitro ADME
Conditions: human, recombinant CYP1B1, pH 7.4, probe TFD008 1 (3-(4-phenylacetate)-6-chlorocoumarin), 10 µM; read-out: Recombinant CYP IC50 (µM) with 95% confidence intervals
Measure: IC50 at 40 min

Could you share which IC50 at 40 min value was measured for C[C@@H]1O[C@@H](O[C@@H]2[C@@H](O)[C@H](OCCc3ccc(O)c(O)c3)O[C@H](CO)[C@H]2OC(=O)/C=C/c2ccc(O)c(O)c2)[C@H](O)[C@H](O)[C@H]1O [Verbascoside] ?
> 50 µM

* * *

Biological target: CYP1A2 (Homo sapiens, UniProt P05177)
Construct: purchased BD Biosciences Discovery Labware (Bedford, MA, USA)
Sequence (P05177 whole entry): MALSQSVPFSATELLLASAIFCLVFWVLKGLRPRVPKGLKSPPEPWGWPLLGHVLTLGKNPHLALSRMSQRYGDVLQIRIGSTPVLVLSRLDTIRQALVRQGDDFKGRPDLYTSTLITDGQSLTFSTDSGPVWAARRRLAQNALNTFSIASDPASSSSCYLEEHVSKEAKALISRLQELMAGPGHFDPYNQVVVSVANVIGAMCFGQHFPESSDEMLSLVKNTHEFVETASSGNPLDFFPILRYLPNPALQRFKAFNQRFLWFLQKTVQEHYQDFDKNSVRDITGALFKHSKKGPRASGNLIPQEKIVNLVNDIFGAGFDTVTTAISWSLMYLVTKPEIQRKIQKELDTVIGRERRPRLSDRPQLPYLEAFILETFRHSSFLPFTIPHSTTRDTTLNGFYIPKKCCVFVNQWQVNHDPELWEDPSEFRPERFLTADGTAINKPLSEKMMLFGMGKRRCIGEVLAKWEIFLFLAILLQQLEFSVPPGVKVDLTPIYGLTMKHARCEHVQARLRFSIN
Assay: Inhibition of recombinant CYP oxidation (fluorescent coumarin substrate)
Format: in vitro ADME
Conditions: read-out: Recombinant CYP IC50 (µM) with 95% confidence intervals
Measure: IC50
Express the reported value numerically, then name its unit.

Give recorded IC50 with CYP1A2 (Homo sapiens, UniProt P05177) for the following compound: C[C@@H]1O[C@@H](O[C@@H]2[C@@H](O)[C@H](OCCc3ccc(O)c(O)c3)O[C@H](CO)[C@H]2OC(=O)/C=C/c2ccc(O)c(O)c2)[C@H](O)[C@H](O)[C@H]1O [Verbascoside]
83 µM

* * *

Target: CYP2D6 (Homo sapiens, UniProt P10635)
Construct: purchased BD Biosciences Discovery Labware (Bedford, MA, USA)
Sequence (P10635 whole entry): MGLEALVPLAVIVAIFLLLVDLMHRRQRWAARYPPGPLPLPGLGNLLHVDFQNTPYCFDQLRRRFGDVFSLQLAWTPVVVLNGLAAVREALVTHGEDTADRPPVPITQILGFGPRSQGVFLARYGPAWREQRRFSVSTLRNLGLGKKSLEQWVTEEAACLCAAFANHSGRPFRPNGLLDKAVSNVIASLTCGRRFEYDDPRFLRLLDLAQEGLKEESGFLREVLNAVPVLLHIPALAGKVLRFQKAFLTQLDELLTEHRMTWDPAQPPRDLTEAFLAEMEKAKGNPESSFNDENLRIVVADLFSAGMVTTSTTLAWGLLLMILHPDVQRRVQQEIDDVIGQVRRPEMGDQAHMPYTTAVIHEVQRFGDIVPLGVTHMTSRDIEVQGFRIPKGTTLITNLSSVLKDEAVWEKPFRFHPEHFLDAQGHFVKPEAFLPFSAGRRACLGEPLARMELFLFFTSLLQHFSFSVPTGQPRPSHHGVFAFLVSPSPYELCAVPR
Test: Inhibition of recombinant CYP oxidation (fluorescent coumarin substrate)
Format: in vitro ADME
Conditions: read-out: Recombinant CYP IC50 (µM) with 95% confidence intervals
Measure: IC50 (µM)
Quick reminder: number only, in µM, skip the unit.

Could you share which IC50 value was measured for C[C@@H]1O[C@@H](O[C@@H]2[C@@H](O)[C@H](OCCc3ccc(O)c(O)c3)O[C@H](CO)[C@H]2OC(=O)/C=C/c2ccc(O)c(O)c2)[C@H](O)[C@H](O)[C@H]1O [Verbascoside] ?
131

* * *

Biological target: CYP1A2 (Homo sapiens)
Construct: purchased BD Biosciences Discovery Labware (Bedford, MA, USA)
Test: Inhibition of recombinant CYP oxidation (fluorescent coumarin substrate)
Assay type: in vitro ADME
Conditions: human, recombinant CYP1A2, pH 7.4; read-out: Recombinant CYP IC50 (µM) with 95% confidence intervals
Measure: IC50 at 40 min

Could you share which IC50 at 40 min value was measured for C[C@@H]1O[C@@H](O[C@@H]2[C@@H](O)[C@H](OCCc3ccc(O)c(O)c3)O[C@H](CO)[C@H]2OC(=O)/C=C/c2ccc(O)c(O)c2)[C@H](O)[C@H](O)[C@H]1O [Verbascoside] ?
> 50 µM

The values you see were collected from paper PMC6600574.
